- TESTED ON: T1, human IL-25 expressed with a C-terminal myc-myc-hexahistidine tag (human)
- T1 construct: also called hIL-25-MMH; Human IL-25-MMH
- T1 chain: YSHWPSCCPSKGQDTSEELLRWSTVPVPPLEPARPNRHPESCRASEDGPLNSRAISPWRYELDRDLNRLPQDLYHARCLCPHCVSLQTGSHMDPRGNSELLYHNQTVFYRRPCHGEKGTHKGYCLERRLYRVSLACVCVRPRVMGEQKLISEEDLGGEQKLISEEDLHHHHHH
- TEST METHOD NOTES: BLI Octet, hIL-25-MMH captured on anti-Penta-His sensor, 25C
Reported 50 ug/mL mAb-1 Binding (nm) values are given for each entry in this list.
# output: bare number, implied unit nm

BINDER	OBSERVED MEASUREMENT
H4H10901P (antibody, human IgG4, V domains shown, H4H prefix = human IgG4 Fc) VH: QLQLQESGPGLVRPSETLSLTCSVSSGSIRSSNYYWGWIRQPPGKGLEWIGNIYYSGNTFYNPSLKGRVTISVDTSKNQFSLKLSSVTATDTAVYYCARQGYSDYELNWFDPWGQGTLVTVSS VL: DIVMTQSPDSLVLSLGERATFNCKSSQSVLDSSNNKNYLAWYQQKPGQPPKLLIYWASTRESGVPDRFSGSGSGTDFSLTISSLQAEDVALYYCQQFYNSPWTFGQGTKVEIK	0.67
H4H10897P (antibody, human IgG4, V domains shown, H4H prefix = human IgG4 Fc) VH: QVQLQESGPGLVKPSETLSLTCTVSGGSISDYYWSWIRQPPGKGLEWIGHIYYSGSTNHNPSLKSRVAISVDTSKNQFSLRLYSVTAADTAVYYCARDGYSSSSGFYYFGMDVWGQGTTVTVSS VL: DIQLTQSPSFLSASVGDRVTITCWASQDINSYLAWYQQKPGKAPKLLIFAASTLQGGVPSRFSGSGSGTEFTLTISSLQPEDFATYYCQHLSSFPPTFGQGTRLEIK	1.12

Now look at this entry.
According to the records, this binder H4H10863P (antibody, human IgG4, V domains shown, H4H prefix = human IgG4 Fc) VH: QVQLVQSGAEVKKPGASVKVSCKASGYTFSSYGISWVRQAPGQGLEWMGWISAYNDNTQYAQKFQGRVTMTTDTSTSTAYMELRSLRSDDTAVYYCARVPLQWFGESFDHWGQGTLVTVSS VL: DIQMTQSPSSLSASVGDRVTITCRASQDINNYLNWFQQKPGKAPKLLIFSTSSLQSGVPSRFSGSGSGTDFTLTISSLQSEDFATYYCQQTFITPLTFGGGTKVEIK displays 50 ug/mL mAb-1 Binding (nm) of 1.13
